Below, each entry is listed alongside its reported human MASP2 IC50.
target: recombinant human MASP2 active protease (amino acids 297-686, C-terminal His Tag) (human, UniProt O00187 297-686); experiment: cell-based or functional assay
Sequence (O00187 other isoform, or with tags, fused parts or gaps limits assumed): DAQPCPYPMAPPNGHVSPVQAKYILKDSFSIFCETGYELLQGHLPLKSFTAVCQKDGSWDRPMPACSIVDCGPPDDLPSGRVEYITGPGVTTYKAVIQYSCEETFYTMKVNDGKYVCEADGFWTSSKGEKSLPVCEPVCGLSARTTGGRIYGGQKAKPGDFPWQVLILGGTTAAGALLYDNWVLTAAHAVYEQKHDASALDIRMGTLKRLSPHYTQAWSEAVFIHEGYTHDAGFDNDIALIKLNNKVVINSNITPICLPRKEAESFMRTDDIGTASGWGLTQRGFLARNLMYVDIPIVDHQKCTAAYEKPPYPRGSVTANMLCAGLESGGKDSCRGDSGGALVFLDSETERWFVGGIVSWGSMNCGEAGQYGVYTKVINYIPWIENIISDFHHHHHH
Bridge positions count the residues as written; N and C are the ends. Square brackets hold non-standard residues; d marks the D form. Ends that are not written are not given here. tBuAla = CC(C)(C)C[C@H](N)C(=O)O; Pen = CC(C)(S)[C@H](N)C(=O)O
Please reply with the bare figure in nM and do not write the unit itself.

Summary for this binder, VICSRS[tBuAla]PPI[Pen]IPD-NH2 (disulfide 3-11; N-terminus assumed; SMILES CC[C@H](C)[C@H](NC(=O)[C@@H](N)C(C)C)C(=O)N[C@H]1CSSC(C)(C)[C@@H](C(=O)N[C@H](C(=O)N2CCC[C@H]2C(=O)N[C@@H](CC(=O)O)C(N)=O)[C@@H](C)CC)NC(=O)[C@H]([C@@H](C)CC)NC(=O)[C@@H]2CCCN2C(=O)[C@@H]2CCCN2C(=O)[C@H](CC(C)(C)C)NC(=O)[C@H](CO)NC(=O)[C@H](CCCNC(=N)N)NC(=O)[C@H](CO)NC1=O) [VIC+SRS-((tBu)A)-PPI-(Pen)+IPD-NH2] : human MASP2 IC50 is 73

Consider the additional binder presented here.
Entry PICSRS[tBuAla]PPI[Pen]IPD-NH2 (disulfide 3-11; N-terminus assumed; SMILES CC[C@H](C)[C@H](NC(=O)[C@@H]1CCCN1)C(=O)N[C@H]1CSSC(C)(C)[C@@H](C(=O)N[C@H](C(=O)N2CCC[C@H]2C(=O)N[C@@H](CC(=O)O)C(N)=O)[C@@H](C)CC)NC(=O)[C@H]([C@@H](C)CC)NC(=O)[C@@H]2CCCN2C(=O)[C@@H]2CCCN2C(=O)[C@H](CC(C)(C)C)NC(=O)[C@H](CO)NC(=O)[C@H](CCCNC(=N)N)NC(=O)[C@H](CO)NC1=O) [PIC+SRS-((tBu)A)-PPI-(Pen)+IPD-NH2] , human MASP2 IC50 reported as 50
